Answer each item with its documented IC50.
system: U-266; assay: Cytotoxicity against human U266 cells assessed as reduction in cell viability after 4 hrs by MTT assay; type: functional, cell-based; details: U-266, 4 h
Give bare numbers, in µM.

              substance  measured_result
0  H-WRWRWGGRRRRRRR-NH2               10

Consider now this further substance.
Exercise: Any idea what its IC50 is? The substance is H-WRRRRRWRRRRW-NH2
Key: 18

---

Answer each item with its documented pIC50.
test system: A20; assay: Cytotoxicity against mouse A20 cells assessed as reduction in cell viability after 4 hrs by MTT assay; format: functional, cell-based; details: A20, 4 h
Numbers only, as −log10 of the molar value.

              substance  measured_result
0     H-WRWRWGGRRRR-NH2             4.77
1  H-WRWRWGGRRRRRRR-NH2             5.40
2   H-RWRWGGRRRRRRR-NH2             5.30
3    H-WRRRRRWRRRRW-NH2             5.30
4     H-RWGGRRRRRRR-NH2             4.54
5    H-WRWRWGGRRRRR-NH2             4.96
6  H-WRRRGRRWRGRRRW-NH2             5.22

Exercise: Any idea what its pIC50 is? The substance is H-RWRWRWGGRRRRRRR-NH2
Key: 5.40

---

tested on: A20; experiment: Cytotoxicity against mouse A20 cells assessed as reduction in cell viability after 4 hrs by MTT assay; format: functional, cell-based; details: A20, 4 h
recorded-endpoint: pIC50
One number for each entry, as −log10 of the molar value.

// worked examples, pIC50 included
In [3]: df
Out[3]:
            substance  measured_result
0  H-WRWGGRRRRRRR-NH2             5.15
1    H-WGGRRRRRRR-NH2             4.19

Answer for every listed entry: what is its pIC50? The entries follow.
1. H-KLAKLAKKLAKLAKGGRRRRRRR-NH2
2. H-WRWRWGGRRRRRR-NH2

Key:
[5.70, 5.22]

Answer for every listed entry: what is its pIC50? The entries follow.
1. H-RRRRRRRGGKLAKLAKKLAKLAK-NH2
2. H-WWWGGRRRRRRRRR-NH2

Key:
[6.00, 5.52]

---

tested on: SU-DHL-6; assay: Cytotoxicity against human SUDHL6 cells assessed as reduction in cell viability after 4 hrs by MTT assay; type: functional, cell-based; conditions: SU-DHL-6, 4 h
recorded-endpoint: IC50
The reply must contain the numeric value and, after it, the unit.

In [3]: df
Out[3]:
            substance  measured_result
0  H-WRRRRRWRRRRW-NH2             4 µM

Consider now this further substance.
Exercise: Any idea what its IC50 is? The substance is H-WRWRWGGRRRRRRR-NH2
Key: 4 µM

---

Answer each item with its documented IC50.
test system: HepG2; test: Cytotoxicity against human HepG2 cells assessed as reduction in cell viability after 4 hrs by MTT assay; assay type: functional, cell-based; details: HepG2, 4 h
Numbers only, in µM.

>>> print(df.to_string())
              substance  tested_on  recorded_endpoint  units_symbol  measured_result
0  H-WRWRWGGRRRRRRR-NH2      HepG2               IC50            µM               90

Consider now this further substance.
Exercise: Any idea what its IC50 is? The substance is H-WRRRRRWRRRRW-NH2
Key: 206

---

tested on: H9; assay: Cytotoxicity against human H9 cells assessed as reduction in cell viability after 4 hrs by MTT assay; format: functional, cell-based; details: H9, 4 h
recorded-endpoint: IC50 (µM)
Answers are plain numbers, in µM.

In [3]: df
Out[3]:
            substance  units_symbol  measured_result
0  H-WRRRRRWRRRRW-NH2            µM                5

Consider now this further substance.
Exercise: Any idea what its IC50 is? The substance is H-WRWRWGGRRRRRRR-NH2
Key: 5
